Numbers sourced from PubChem BioAssay (NCI).

- System: HOP-92 NSCLC
- test.details: NCI tumour cell line growth inhibition, 48 h
measurement.kind: TGI

Below, 4 compounds whose answers are already recorded.
| compound | TGI |
| --- | --- |
| CNC(=O)Nc1ccccc1 | > 100 µM |
| Fc1cccc(-c2[nH]nc3nc(Nc4cccnc4)sc23)c1 | > 100 µM |
| O=C(O)c1ccc(NNC(=O)c2cccc3c(=O)c4ccccc4[nH]c23)cc1 | > 100 µM |
| C=C(CN(C)C)C(=O)c1ccc(Oc2ccccc2)cc1 | > 25.5 µM |

Request: Using known records, supply TGI for CN1N=C2c3ccccc3CC[C@H]2C1c1cccc(O)c1 (stereo partly specified)
Result: > 100 µM

Request: Using known records, supply TGI for CCCCCCCCCCCCC(CCCCCCCCCCCC)OP(=O)(O)O
Result: > 100 µM

Request: Using known records, supply TGI for O=Nc1c(NO)ccc2nn(-c3ccccc3)nc12
Result: > 100 µM

Request: Using known records, supply TGI for Cc1ccc(S(=O)(=O)Nn2c(O)c(C#N)c(-c3ccc(N(C)C)cc3)c(C#N)c2=O)cc1
Result: > 50 µM

Request: Using known records, supply TGI for C/C(=C\c1ccn(-c2ccc(N)cc2F)n1)[C@@H]1C[C@@H]2O[C@]2(C)CCC[C@H](C)[C@H](O)[C@@H](C)C(=O)C(C)(C)[C@@H](O)CC(=O)O1
Result: > 50 µM

Request: Using known records, supply TGI for COc1cc(/C=C2\C[C@H]3[C@@H]4CC=C5C[C@@H](OC(C)=O)CC[C@]5(C)[C@H]4CC[C@]3(C)[C@H]2OC(C)=O)ccc1OCCN1CCCCC1
Result: > 50 µM

Request: Using known records, supply TGI for CCOP(=O)(OCC)C(F)(F)Cc1cnc(C)c2c1COC(C)(C)O2
Result: > 10 µM
